# Test system: Saccharomyces cerevisiae
# procedure_text: protein stability index of tFT-peptide fusion (C-terminal peptide) (PSI (0-1 scale)); higher = more stable (slower turnover);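 further: PSI is a weighted mean of sequencing reads over stability bins, variants kept only with over 10 reads, mCherry proximal and sfGFP distal, peptide attached via GGGS linker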
# experimental_parameters: genetic background: wild type; temperature: 30 C
endpoint_name: protein stability index

Here is how some sequences turned out for protein stability index.
1) GDMSIWRSNNIT; 0.672
2) ALHGTVRNWQRQ; 0.39
3) GGRCAERSDWCG; 0.647
4) LAARHLNFPPIL; 0.711
5) GDSKTKDEMYKI; 0.687

For reference, reported protein stability index for `LFFRLRSLLSRS` stands at 0.623

Data point: `ETLEKYGDPMRD` ; protein stability index = 0.624

Recorded result, `WVGVGMRTNGLG` , protein stability index: 0.679

Sure, the documented protein stability index for `PPPRLPTSPDSP` is 0.722

The sequence listed as `VRDRVLFVARGG` shows protein stability index equal to 0.7

Entry `LSGGAVVEVHFL` — recorded protein stability index = 0.674

protein stability index for `RSSYTLLLPPLR` is 0.624

* * *

# Test system: Saccharomyces cerevisiae
# procedure_text: protein stability index of tFT-peptide fusion (C-terminal peptide) (PSI (0-1 scale)); higher = more stable (slower turnover)
# experimental_parameters: genetic background: cdc53-1; temperature: 37 C
Items are presented alongside their recorded protein stability index.
Give only the figure.

Examples from the recorded data:
1. VSFEFSVLWTVF; 0.592
2. WSFPFFLLPFLF; 0.352
3. VLWSCCGGVRVR; 0.629
4. GVMICLDLLLSV; 0.521

The sequence listed as `SYRFFLFLAVFV` has a reported protein stability index of 0.554

In plain terms, `SWTAYSYQWVFF` has a documented protein stability index of 0.57

Entry under test: `FPFVYRSVLLFF` . Its protein stability index was 0.484

Entry under test: `NAGSHHAAVKLG` . Its protein stability index was 0.74

Reported protein stability index ( `HRPRPLLKLLAS` ) = 0.596

Lookup result for `VLLLRRPLLVFS` ; measured protein stability index: 0.105

* * *

# Tested on: Saccharomyces cerevisiae
# procedure_text: protein stability index of tFT-peptide fusion (C-terminal peptide) (PSI (0-1 scale)); higher = more stable (slower turnover)
# experimental_parameters: genetic background: wild type; temperature: 30 C
Hi, to clarify the labels: yes covers protein stability index from 0.7 upward, no covers anything below 0.7.

Past entries and their recorded results:
1) SKKNKNIQKHLY; yes
2) CCRTMLGSLVRS; no
3) SYFSVTLFFTVI; no
4) FVFLVLGPYAMF; no
5) IPRERPAEHYGG; no
6) FRICSLTLSLSI; no
7) LTFSVQCVYFDS; no
8) PARPSSLQLFPY; yes

// query Threshold query (protein stability index >= 0.7) on `WSYGHVPYDYPF`
// result yes

// query Please indicate if the recorded protein stability index for `FSSLFLSLLCPP` meets or exceeds 0.7.
// result yes

// query # check: protein stability index of `TPLPPSALPLPL` is greater than or equal to 0.7
// result yes

// query # check: protein stability index of `CTGDLSHVLFGI` is greater than or equal to 0.7
// result yes

// query Is protein stability index for `RTPAPENPPTSP` at or above 0.7?
// result no

// query Record `WARSLPHPISRR` ; criterion: protein stability index no lower than 0.7. Met?
// result yes
